- Test system: U2932 TK216-resistant clone 2
- experimentNotes: cell proliferation relative to vehicle (% of vehicle); higher = less growth inhibition
- details: 50 nM; 72 h
experimentalReadout: cell proliferation
Answers are plain numbers.

compound=CCCS(=O)(=O)Nc1ccc(F)c(C(=O)c2c[nH]c3ncc(Cl)cc23)c1F datavalue=99.4
compound="Cc1cc(Nc2cc(N3CCN(C)CC3)nc(/C=C/c3ccccc3)n2)n[nH]1 [ENMD-2076 L-(+)-Tartaric acid]" datavalue=101
compound=Cc1cnc(-c2cnc(NCCNc3ccc(C#N)cn3)nc2-c2ccc(Cl)cc2Cl)[nH]1 datavalue=101
compound=C=CCNC1=C2C[C@@H](C)C[C@H](OC)[C@H](O)[C@@H](C)/C=C(\C)[C@H](OC(N)=O)[C@@H](OC)/C=C\C=C(/C)C(=O)NC(=CC1=O)C2=O datavalue=103
compound=O=C(c1cc(Cc2n[nH]c(=O)c3ccccc23)ccc1F)N1CCN(C(=O)C2CC2)CC1 datavalue=103

Batch: cell proliferation for all items listed.
1. Cc1nc(C(=O)NCC(=O)O)c(O)c2ccc(Oc3ccccc3)cc12
2. O=C(O)CCNc1cc(N2CCc3ccccc3CC2)nc(-c2ccccn2)n1

A:
1: 102; 2: 103
